System: 855422-203-R-J1-PDC complex spheroids, viability;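 note: spheroids exposed to drugs for seven days before readout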
Assay remarks: Anticancer human tumor 855422-203-R-J1-PDC patient-derived bladder carcinoma cell line growth inhibition [CLK]
Details: curve of first compound; second compound 0.316 µM
Reported metric: IC50

CC1(C)CCC(CN2CCN(c3ccc(C(=O)NS(=O)(=O)c4ccc(NCC5CCOCC5)c([N+](=O)[O-])c4)c(Oc4cnc5[nH]ccc5c4)c3)CC2)=C(c2ccc(Cl)cc2)C1 + CNC(=O)c1ccc(Nc2nc(OC3CCCC3)c3c(-c4ccc5nc(C)oc5c4)c[nH]c3n2)c(OC)c1; < 0.0316 µM
CC(=O)O[C@H]1C(=O)[C@@]2(C)[C@H]([C@H](OC(=O)c3ccccc3)[C@]3(O)C[C@H](OC(=O)[C@H](O)[C@@H](NC(=O)c4ccccc4)c4ccccc4)C(C)=C1C3(C)C)[C@]1(OC(C)=O)CO[C@@H]1C[C@@H]2O + CN1CCN(c2cc(C(=O)Nc3cc4cc(-c5cnn(C)c5)ccc4cn3)ccn2)CC1; < 0.0316 µM
COc1ccc([C@@H](O)c2cc(-c3ncnc4cc(N5CCOCC5)ccc34)c(F)cc2Cl)nn1 + CNC(=O)c1ccc(Nc2nc(OC3CCCC3)c3c(-c4ccc5nc(C)oc5c4)c[nH]c3n2)c(OC)c1; < 0.0316 µM
CCc1c2c(nc3ccc(O)cc13)-c1cc3c(c(=O)n1C2)COC(=O)[C@]3(O)CC + CNC(=O)c1ccc(Nc2nc(OC3CCCC3)c3c(-c4ccc5nc(C)oc5c4)c[nH]c3n2)c(OC)c1; < 0.00316 µM
COc1cccc2c1C(=O)c1c(O)c3c(c(O)c1C2=O)CC(O)(C(=O)CO)CC3OC1CC(N)C(O)C(C)O1 (stereo not given) + CN1CCN(c2cc(C(=O)Nc3cc4cc(-c5cnn(C)c5)ccc4cn3)ccn2)CC1; < 0.0316 µM
CC(C)CC(NC(=O)C(Cc1ccccc1)NC(=O)c1cnccn1)B(O)O (stereo not given) + CNC(=O)c1ccc(Nc2nc(OC3CCCC3)c3c(-c4ccc5nc(C)oc5c4)c[nH]c3n2)c(OC)c1; < 0.000949 µM
CC(C)CC(NC(=O)C(Cc1ccccc1)NC(=O)c1cnccn1)B(O)O (stereo not given) + CN1CCN(c2cc(C(=O)Nc3cc4cc(-c5cnn(C)c5)ccc4cn3)ccn2)CC1; < 0.000949 µM
C=C(F)C(=O)N1CCN(c2nc(OCC3CCCN3C)nc3c2CCN(c2cccc4cccc(Cl)c24)C3)CC1CC#N (stereo not given) + CNC(=O)c1ccc(Nc2nc(OC3CCCC3)c3c(-c4ccc5nc(C)oc5c4)c[nH]c3n2)c(OC)c1; < 0.0316 µM
O=C(c1cc(Cc2n[nH]c(=O)c3ccccc23)ccc1F)N1CCN(C(=O)C2CC2)CC1 + CN1CCN(c2cc(C(=O)Nc3cc4cc(-c5cnn(C)c5)ccc4cn3)ccn2)CC1; < 0.0316 µM
NC(=O)C(=Cn1cnc(-c2cc(C(F)(F)F)cc(C(F)(F)F)c2)n1)c1cncnc1 + CN1CCN(c2cc(C(=O)Nc3cc4cc(-c5cnn(C)c5)ccc4cn3)ccn2)CC1; < 0.00949 µM
CCCS(=O)(=O)Nc1ccc(F)c(C(=O)c2c[nH]c3ncc(-c4ccc(Cl)cc4)cc23)c1F + CN1CCN(c2cc(C(=O)Nc3cc4cc(-c5cnn(C)c5)ccc4cn3)ccn2)CC1; < 0.0316 µM
CC(CO)NC(=O)c1cc(-c2ccc(Cl)cc2)nn(-c2cnn(C)c2)c1=O (stereo not given) + CNC(=O)c1ccc(Nc2nc(OC3CCCC3)c3c(-c4ccc5nc(C)oc5c4)c[nH]c3n2)c(OC)c1; < 0.0316 µM
C=C(F)C(=O)N1CCN(c2nc(OCC3CCCN3C)nc3c2CCN(c2cccc4cccc(Cl)c24)C3)CC1CC#N (stereo not given) + CN1CCN(c2cc(C(=O)Nc3cc4cc(-c5cnn(C)c5)ccc4cn3)ccn2)CC1; < 0.0316 µM
COc1cccc2c1C(=O)c1c(O)c3c(c(O)c1C2=O)CC(O)(C(=O)CO)CC3OC1CC(N)C(O)C(C)O1 (stereo not given) + CNC(=O)c1ccc(Nc2nc(OC3CCCC3)c3c(-c4ccc5nc(C)oc5c4)c[nH]c3n2)c(OC)c1; < 0.0316 µM
Nc1ccn(C2OC(CO)C(O)C2(F)F)c(=O)n1 (stereo not given) + CN1CCN(c2cc(C(=O)Nc3cc4cc(-c5cnn(C)c5)ccc4cn3)ccn2)CC1; < 0.0316 µM

// provenance: PubChem BioAssay AID2060609
